Recorded measurements of inhibition, one per entry
Target: Hexose transporter 1 (Plasmodium falciparum)
Assay: ST_JUDE_LEISH: Cytotoxicity at 2uM final concentration against transgenic Leishmania Mexicana promastigotes LmPfHT that are glucose transport deficient and complemented with the Plasmodium falciparum hexose transporter. Activity is measured by DNA content using SYBR green in vitro
Type: functional
Quick note: give the figure in %, leave out the unit.

Sample records with inhibition:
[[record]]
compound = "COc1ccc([N+](=O)[O-])cc1N(Cc1ccccc1-c1ccccc1)S(=O)(=O)c1ccc(C(F)(F)F)cc1"
measuredon = "Hexose transporter 1 (Plasmodium falciparum)"
testreadout = "inhibition"
unitabbreviation = "%"
val = 5.68

[[record]]
compound = "CCCCN1CCN(CCCNc2c3ccccc3nc3ccccc23)CC1"
measuredon = "Hexose transporter 1 (Plasmodium falciparum)"
testreadout = "inhibition"
unitabbreviation = "%"
val = 80

[[record]]
compound = "Cc1ccc(O)cc1Nc1ccnc2cc(-c3ccc(CN4CCCCC4)o3)ccc12"
measuredon = "Hexose transporter 1 (Plasmodium falciparum)"
testreadout = "inhibition"
unitabbreviation = "%"
val = 12.2

[[record]]
compound = "O=C(NCCN1CCCCC1)N1CCCN(c2ncnc3cc(-c4ccccc4)sc23)CC1"
measuredon = "Hexose transporter 1 (Plasmodium falciparum)"
testreadout = "inhibition"
unitabbreviation = "%"
val = 1.64


I am curious: what inhibition value has been reported for "COc1ccc(NC(=O)CCNc2ccnc(NCCc3ccc(F)cc3)n2)cc1" ?
2.27

Another compound to look at: "Cc1ccc(CN2CCCN(Cc3cccc(C(=O)Nc4ccc(C(C)(C)C)cc4)c3)CC2)s1"
2.76

Can you handle CC(C)C(C)(C#N)NC(=O)CSc1nc2ccc([N+](=O)[O-])cc2s1 (stereo not given) next?
0.01

* * *

Target: Hexose transporter 1 (Plasmodium falciparum) (UniProt O97467)
Test: ST_JUDE_LEISH: Cytotoxicity at 2uM final concentration against transgenic Leishmania Mexicana promastigotes LmPfHT that are glucose transport deficient and complemented with the Plasmodium falciparum hexose transporter. Activity is measured by DNA content using SYBR green in vitro
Type: functional
testReadout: inhibition (%)
Quick note: give the figure in %, leave out the unit.

Known inhibition results, listed for orientation:
[[record]]
molecule = "O=[N+]([O-])c1ccc(N/C(=N\\c2ccccc2Br)NCCOc2ccccc2)c(O)c1"
val = -0.42

[[record]]
molecule = "COc1ccc2nc3cc(Cl)ccc3c(NCCN(C)C)c2c1"
val = 5.07

[[record]]
molecule = "Cn1nccc1C(=O)NCCNCc1ccc(-c2ccc(-c3nc4ccccc4[nH]3)s2)cc1"
val = 3.81

[[record]]
molecule = "CC[C@H](C)CNC(=O)c1cncc(-c2ccc(CNCC3CNCCCO3)cc2)c1 (some centres not stated)"
val = -2.12

[[record]]
molecule = "Clc1ccc(Nc2nc(NCc3ccccc3)nc(N/N=C/c3ccccn3)n2)cc1"
val = 83.5

[[record]]
molecule = "COc1ccc(CN2CCN(CC(=O)Nc3cc(Cl)ccc3-n3cncn3)CC2)cc1F"
val = 1.82

[[record]]
molecule = "CCCCCN1CCCN(Cc2cccc(NC(=O)c3ccc(-c4ccccc4)cc3)c2)CC1"
val = -0.99

[[record]]
molecule = "CC(C)(C)c1ccc(NC(=O)c2ccc(CN3CCCN(Cc4cccc(F)c4)CC3)cc2)cc1"
val = 13.3


Field request: inhibition | item: "CNCCNCc1ccc(-c2ccc(-c3nc4ccccc4[nH]3)s2)cc1"
4.5

Now the molecule "Oc1ccc(CCNc2nc(N/N=C/c3ccc(Cl)cc3)nc(N3CCNCC3)n2)cc1"
1.75

Check "CCN(CC)CCN(Cc1ccc(-c2ccc(C(F)(F)F)cc2)cc1)C(=O)Cn1c(SCc2ccc(F)cc2)cc(=O)c2ccccc21" too.
-0.14

Continue with O=c1cc(NCCCNC(c2ccccc2)c2ccc(Cl)c(Cl)c2)[nH]c2ccccc12 (configuration not stated)
-1.47

"Cc1sc(NC(=O)Cc2cccc(C(F)(F)F)c2)nc1-c1cccc(Cl)c1" , same question.
8.91

Field entry: "Cc1sc2cc(Cl)cc(Cl)c2c1S(=O)(=O)Nc1ccc2nccc(N3CCNCC3)c2c1"
-0.22

Okay, and "O=C(Nc1ccc(Cl)c(Cl)c1)N1CCc2ccc(OCCCN3CCCCC3)cc2CC1" ?
16.2

Try CCNc1cc(C(=O)N[C@@H](Cc2ccccc2)[C@H](O)CNC2C3CC4CC(C3)CC2C4)cc(N2CCCCS2(=O)=O)c1 (some centres not stated) next.
0.88

Now the molecule "CC/N=C(/NCCCCCCN/C(=N/CC)NCc1ccccc1)NCc1ccccc1"
-0.55
